- MEASURED ON: purified recombinant human GAC (GLS1) (Homo sapiens (Human), UniProt O94925)
- Sequence (O94925 other isoform, or with tags, fused parts or gaps): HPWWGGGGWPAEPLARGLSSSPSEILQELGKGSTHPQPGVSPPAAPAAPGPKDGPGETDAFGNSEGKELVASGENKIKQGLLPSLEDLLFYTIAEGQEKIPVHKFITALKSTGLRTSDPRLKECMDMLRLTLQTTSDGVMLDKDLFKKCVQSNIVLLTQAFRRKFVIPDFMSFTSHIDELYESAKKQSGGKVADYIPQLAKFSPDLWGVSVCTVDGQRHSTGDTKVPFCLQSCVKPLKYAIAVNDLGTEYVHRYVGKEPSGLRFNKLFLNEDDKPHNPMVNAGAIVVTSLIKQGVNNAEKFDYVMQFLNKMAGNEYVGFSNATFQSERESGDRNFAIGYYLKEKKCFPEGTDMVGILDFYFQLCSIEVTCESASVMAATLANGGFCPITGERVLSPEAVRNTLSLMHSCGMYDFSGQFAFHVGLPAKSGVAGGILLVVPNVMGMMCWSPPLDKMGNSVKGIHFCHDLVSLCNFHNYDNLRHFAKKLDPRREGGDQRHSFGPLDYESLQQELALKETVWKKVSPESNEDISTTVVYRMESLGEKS
- TEST NAME: GLS1 Enzymatic Activity Assay (dual-coupled enzymatic assay, resorufin/Amplex UltraRed readout);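 also: glutamate from GAC coupled via glutamate oxidase and peroxidase to resorufin, read as fluorescence (ex 530, em 590 nm) kinetically or at 20 min, four-parameter logistic IC50 fit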
pIC50: −log10 of the molar value.

{"MOLECULE": "CC(NC(=O)c1cn(CCCCn2cc(C(=O)NCc3cc(C(F)(F)F)ccn3)nn2)nn1)c1cccc(OC(F)(F)F)c1 (stereo not shown)", "pIC50": "> 7.00"}
{"MOLECULE": "O=C(CN1CC(F)C1)Nc1cn(CC(F)CCn2cc(C(=O)NCc3cc(C(F)(F)F)ccn3)nn2)nn1 (stereo not shown)", "pIC50": "6.30 to 7.00"}
{"MOLECULE": "Cc1ccc(CNC(=O)c2cn(CCCCn3cc(NC(=O)CN4CCC(F)(F)C4)nn3)nn2)cn1", "pIC50": "5.30 to 6.30"}
{"MOLECULE": "O=C(NCc1cc(C(F)(F)F)ccn1)c1cn(CCC(F)Cn2cc(C(=O)NCc3cncc(C(F)(F)F)c3)nn2)nn1 (stereo not shown)", "pIC50": "> 7.00"}
{"MOLECULE": "O=C(NCc1cccc(OC(F)(F)F)c1)c1cn(CCCCn2cc(C(=O)NCC3CC4CCC3O4)nn2)nn1 (stereo not shown) [Example 116]", "pIC50": "> 7.00"}
{"MOLECULE": "O=C(NCC1CC1)c1cn(CCCCc2nnc(C(=O)NCc3ccccn3)s2)nn1", "pIC50": "5.30 to 6.30"}
{"MOLECULE": "O=C(NCc1cc(C(F)(F)F)ccn1)c1cn(CCCCn2cc(C(=O)NCc3cc(F)ccc3Cl)nn2)nn1", "pIC50": "> 7.00"}

Where do the numbers come from? From patent US10344025B2.
